target: T1, DyLight488 labeled peptide DL488-BSCSB; experiment: MST; DL488-BSCSB (2 μM) held constant, OSCSO titrated (76 nM to 5 mM); 100 mM phosphate buffer pH 7.4 in the presence of TCEP; the legend of Figure 5b calls it a fluorescence quenching assay; conditions: both partners purified
T1 chain: DyLight488-[Phe(4-B(OH)2)]SCS[Phe(4-B(OH)2)]
Square brackets hold non-standard residues; d marks the D form. Ends that are not written are not given here. Phe(4-B(OH)2) = N[C@@H](Cc1ccc(B(O)O)cc1)C(=O)O; Dopa = N[C@@H](Cc1ccc(O)c(O)c1)C(=O)O
measurement-label: pKd
Please express pKd as -log10 of the molar concentration.

stdin: Which pKd value is on record for [Dopa]SCS[Dopa] [OSCSO] ?
stdout: 5.74
